Provenance of the data: patent US20050020492A1

Test Target: T1, human MCH-2R (human, UniProt Q969V1 1-340)
T1 construct: Function: 293AEQ17/MCH-2R cells; also called hMCH-2R
T1 sequence (Q969V1 whole entry): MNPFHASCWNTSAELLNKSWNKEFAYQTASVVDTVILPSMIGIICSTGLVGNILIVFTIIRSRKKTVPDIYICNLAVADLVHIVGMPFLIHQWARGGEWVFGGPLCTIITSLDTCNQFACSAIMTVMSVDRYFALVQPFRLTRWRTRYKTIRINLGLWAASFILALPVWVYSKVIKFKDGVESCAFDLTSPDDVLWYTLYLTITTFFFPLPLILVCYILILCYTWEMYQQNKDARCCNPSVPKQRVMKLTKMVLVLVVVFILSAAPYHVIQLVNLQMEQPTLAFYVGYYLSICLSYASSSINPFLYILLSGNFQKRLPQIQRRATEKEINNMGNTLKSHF
Assay Info: SPA, displacement of [125I]-[Phe13,Tyr19]-hMCH, MCH-2R membranes
Positions of bridges follow the written chain, without caps; N, C: chain ends. No end group written: not given here.
Readout Type: IC50 (nM)

[
  {
    "Binder": "XCMLGRVYRPC (N-terminal acetyl; D-Cit (D-citrulline) at position 6; C-terminal amide; disulfide cycle) [SEQ. ID. NO. 14 (Ac-D-Cit^6 analog of Ac-hMCH(6-16)-NH2)]",
    "Units Of Measure": "nM",
    "IC50": 134
  },
  {
    "Binder": "XMLGRVYRPC (Ac-Arg^6 segment eliminated; Mpr, des-amino-cysteine (3-mercaptopropionic acid) at position 7 instead of Cys; C-terminal amide; disulfide ring) [SEQ. ID. NO. 15 (Δ(X^6-Cys^7), Mpr^7 analog of Ac-hMCH(6-16)-NH2)]",
    "Units Of Measure": "nM",
    "IC50": 3500
  }
]

P = DFDMLRCMLGRVYRPCWQV (disulfide 7-16 (inferred)) [human MCH]
Q = XCMLGRVYRPC (N-terminal acetyl; D-Nle (D-norleucine) at position 6; C-terminal amide; disulfide cycle) [SEQ. ID. NO. 7 (Ac-D-Nle^6 analog of Ac-hMCH(6-16)-NH2)]
Sorting by IC50 in descending order, would P or Q appear first? # answer = label of selected item Q
